Exercise: state measured Ki for each of the molecules provided.
Target: recombinant human ALK5 (TGF-βR1) protein (Homo sapiens, UniProt P36897)
Sequence (P36897 34-503): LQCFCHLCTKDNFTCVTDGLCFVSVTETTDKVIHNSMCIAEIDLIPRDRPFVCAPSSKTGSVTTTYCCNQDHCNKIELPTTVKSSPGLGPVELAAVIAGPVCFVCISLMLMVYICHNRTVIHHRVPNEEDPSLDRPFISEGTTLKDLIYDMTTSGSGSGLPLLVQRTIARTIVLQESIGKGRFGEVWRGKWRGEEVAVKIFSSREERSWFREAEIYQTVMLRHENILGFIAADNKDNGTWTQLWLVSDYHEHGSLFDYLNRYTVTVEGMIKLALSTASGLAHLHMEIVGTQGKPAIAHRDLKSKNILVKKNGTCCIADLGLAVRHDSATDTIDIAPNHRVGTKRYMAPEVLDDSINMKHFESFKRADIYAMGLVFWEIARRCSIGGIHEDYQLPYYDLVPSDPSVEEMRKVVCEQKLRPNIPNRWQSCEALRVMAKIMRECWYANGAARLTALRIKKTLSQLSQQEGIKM
Experiment: Biochemical ALK5 (TGF-βR1) assay to measure pKi (LANCE Ultra ULight kinase assay)
Details: apparent pKi, converted from pIC50 by Cheng-Prusoff

Solved cases (2 shown):
Cc1cccc(-c2nccc(Nc3ccnc(Nc4ccc(CN5CCCC(C(=O)O[C@H]6CCNC6)C5)cc4)n3)n2)n1 (mixture of isomers) = 0.0398 to 0.316 nM
Cc1cccc(-c2nccc(Nc3ccnc(Nc4ccc(C(=O)O[C@H]5CCNC5)cn4)n3)n2)n1 = 3.98 to 31.6 nM

Your task in this section: give Ki for each listed record.
1. Cc1cccc(-c2nccc(Nc3ccnc(Nc4ccc5c(c4)CNCC5)n3)n2)n1
2. Cc1cccc(-c2nccc(Nc3ccnc(Nc4ccc(N5CCN(C6CNC6)CC5)cc4)n3)n2)n1

Output:
["≤ 0.0316 nM", "0.0398 to 0.316 nM"]

Source listed as patent US20230399312A1.
